# system: Muscarinic acetylcholine receptor M4 (Homo sapiens)
# assay info: compounds altering M4/GIRK thallium flux, either direction, primary screen, M4 allosteric agonist project, cell-based, HEK293 M4/GIRK, BTC-AM (AID 625);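 further: thallium influx through GIRK channels coupled to M4 in HEK293 cells with BTC-AM dye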
# condition label: at 10 µM, actives lie on both sides
Returns Criterion met if the recorded fluorescence slope is greater than or equal to 0.005, and Criterion not met otherwise.

| smiles code | system | answer label |
| --- | --- | --- |
| Cc1cc(=O)oc(C)c1C(=O)NCCc1ccccc1 | Muscarinic acetylcholine receptor M4 (Homo sapiens) | Criterion not met |
| COc1ccccc1C(=O)Nc1cc(Cl)ccc1O | Muscarinic acetylcholine receptor M4 (Homo sapiens) | Criterion met |
| Cn1c(NCc2ccccc2)nc2c1c(=O)n(Cc1ccccc1)c(=O)n2C | Muscarinic acetylcholine receptor M4 (Homo sapiens) | Criterion met |
| CCNc1sc(C(=O)c2cccs2)c(N)c1C#N | Muscarinic acetylcholine receptor M4 (Homo sapiens) | Criterion not met |
| CC1(C)Cc2c(C#N)c(SCC(=O)c3ccccc3)nc(N3CCOCC3)c2CS1 | Muscarinic acetylcholine receptor M4 (Homo sapiens) | Criterion met |

Pending molecule:
[Q] Is reported fluorescence slope greater than or equal to 0.005 here: "Cc1sc(-n2c(C)cc(/C=N/n3cnnc3)c2C)c(C#N)c1C"
[A] Criterion not met

* * *

# assay info: inhibitors of E-selectin induction by TNFa, primary screen, imaging, HUVEC, immunofluorescence, MLSMR starter and 10KST1 sets (AID 487);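 further: 100% = median nuclei count of all wells on the same plate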
# condition label: HUVEC TNFalpha-induced E-selectin immunofluorescence imaging, at 2 µM; measured here: cell number, toxicity
measure name: nuclei count (%)
API: value field is a number in %; no unit string.

| molecule | nuclei count / % |
| --- | --- |
| O=C(NC1CCCCC1)c1cc2nc(-c3ccco3)cc(C(F)(F)F)n2n1 | 156 |
| CCOC(=O)Cc1c(C)c2c(O)cc(O)cc2oc1=O | 150 |
| Cc1cc(C)n2cc(CSc3nnnn3-c3ccc(Cl)cc3)nc2n1 | 91.8 |

Note to self: nuclei count recorded for CCCCOC(=O)CSC1=C(C#N)C(c2ccc3c(c2)OCO3)CC(=O)N1 (configuration not stated) was 155

The measured nuclei count associated with "Cc1noc(C)c1CSc1ccccc1C(=O)N1CCN(c2ccccc2)CC1" reads 105

// recorded nuclei count for "C=C(C)Cn1c(-c2ccc(OC)cc2)nc2ccccc21" : 157

Memo: "Cc1cc(NS(=O)(=O)c2ccccc2)no1" , reported nuclei count: 122

For reference, reported nuclei count for "CCOC(=O)c1ccc(Oc2cc(C)nc(SC)n2)cc1" stands at 134

Record "Cn1cc(Br)c(C(=O)NC2CCCCC2)n1" , field nuclei count: 238

The recorded nuclei count for entry "c1ccc(C2(Cn3ccc4ccccc43)OCCO2)cc1" equals 123

Sure, the documented nuclei count for "O=C(CSc1nc(N2CCCCC2)nc(N2CCCCC2)n1)Nc1nccs1" is 72.8

Looking up "NC(=O)C1CCN(CCC(=O)Nc2ccc(Br)cc2)CC1" , I see its nuclei count listed as 163

* * *

# system: Voltage-gated potassium channel subunit beta-2 (Rattus norvegicus) (UniProt P62483)
# Sequence (P62483 whole entry, looked up): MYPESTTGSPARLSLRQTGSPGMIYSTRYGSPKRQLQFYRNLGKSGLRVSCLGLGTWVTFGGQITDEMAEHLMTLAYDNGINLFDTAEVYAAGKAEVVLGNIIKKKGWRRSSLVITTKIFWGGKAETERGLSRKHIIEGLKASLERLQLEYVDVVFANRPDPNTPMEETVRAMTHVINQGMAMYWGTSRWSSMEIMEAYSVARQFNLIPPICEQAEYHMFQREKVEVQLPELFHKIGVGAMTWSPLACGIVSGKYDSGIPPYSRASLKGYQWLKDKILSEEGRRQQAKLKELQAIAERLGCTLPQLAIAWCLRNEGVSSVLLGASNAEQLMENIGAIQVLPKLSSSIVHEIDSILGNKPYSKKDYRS
# assay info: KvBeta positive modulators, primary screen, biochemical, NADPH fluorescence (AID 623);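 further: fluorescence intensity change per second fitted from 20 to 320 s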
# condition label: Recombinant KvBeta, NADPH fluorescence decrease slope, 10 min; at 10 µM; stronger effect = lower value
measure name: NADPH fluorescence slope
A bare number is all that is needed in reply.

Form: molecule = Cc1cc2n(n1)C(c1ccccc1)Nc1ccccc1-2 (stereo unspecified) ; NADPH fluorescence slope = -3.7e-05

Value of NADPH fluorescence slope reported for the molecule Cc1cccc(N2C(=O)CC(N3CCN(C(=O)c4ccccc4)CC3)C2=O)c1 (stereo unspecified) is -0.000104

# NADPH fluorescence slope of "CCC(=O)Nc1ccc(-c2nnc(-c3ccccc3)o2)cc1" = -8.1e-05

Data point: CCOCCCNC(=O)CC1Oc2ccc(C)cc2NC1=O (stereo unspecified) ; NADPH fluorescence slope = -3.6e-05

Looking up "COc1ccc(OC)c(S(=O)(=O)Nc2ccccc2SC)c1" , I found its NADPH fluorescence slope recorded as -3.4e-05

Summary for this molecule, N#Cc1ccc(-c2ccc(OCC(O)Cn3nnc4ccccc43)cc2)cc1 (stereo unspecified) : NADPH fluorescence slope is -6e-06

* * *

# system: Voltage-gated potassium channel subunit beta-2 (Rattus norvegicus) (UniProt P62483)
# assay info: KvBeta enzyme negative modulators, primary screen, biochemical, NADPH fluorescence (AID 622);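 further: slope of raw intensity against log time taken from 70 to 1610 s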
# condition label: recombinant KvBeta, 4-cyanobenzaldehyde reduction, at 10 µM, stronger effect = higher value
Where a SMILES comes first, the peptide text is derived from it. The star is where a group is joined. Boc = CC(C)(C)OC(=O)*
Label scheme for fluorescence slope: lower than -0.5 is not met, -0.5 and above is met.

Before answering, review these 5 worked examples.
| molecule | system | answer label |
| --- | --- | --- |
| COc1cc(S(=O)(=O)N2CCN(C)CC2)c(OC)cc1Br | Voltage-gated potassium channel subunit beta-2 (Rattus norvegicus) (UniProt P62483) | met |
| Cc1ccccc1-c1nc(Cc2ccccc2)no1 | Voltage-gated potassium channel subunit beta-2 (Rattus norvegicus) (UniProt P62483) | met |
| CCC(C)C(NC(=O)OC(C)(C)C)C(=O)NC(CC(C)C)C(N)=O (stereo not drawn) (Boc-Ile-Leu-NH2; configuration not given here) | Voltage-gated potassium channel subunit beta-2 (Rattus norvegicus) (UniProt P62483) | not met |
| CCCCNC(=O)c1nnn(-c2ccccc2)c1N | Voltage-gated potassium channel subunit beta-2 (Rattus norvegicus) (UniProt P62483) | not met |
| COC(=O)c1ccc(-n2nnnc2SCc2nn[nH]n2)cc1 | Voltage-gated potassium channel subunit beta-2 (Rattus norvegicus) (UniProt P62483) | met |

Read the next record carefully.
[Q] fluorescence slope >= -0.5 for "CCCSc1nc(N2CCOCC2)c2c(c1C#N)CCCC2" ?
[A] met

* * *

# system: Alpha-2C adrenergic receptor (Homo sapiens) (UniProt P18825)
# Sequence (P18825 whole entry, looked up): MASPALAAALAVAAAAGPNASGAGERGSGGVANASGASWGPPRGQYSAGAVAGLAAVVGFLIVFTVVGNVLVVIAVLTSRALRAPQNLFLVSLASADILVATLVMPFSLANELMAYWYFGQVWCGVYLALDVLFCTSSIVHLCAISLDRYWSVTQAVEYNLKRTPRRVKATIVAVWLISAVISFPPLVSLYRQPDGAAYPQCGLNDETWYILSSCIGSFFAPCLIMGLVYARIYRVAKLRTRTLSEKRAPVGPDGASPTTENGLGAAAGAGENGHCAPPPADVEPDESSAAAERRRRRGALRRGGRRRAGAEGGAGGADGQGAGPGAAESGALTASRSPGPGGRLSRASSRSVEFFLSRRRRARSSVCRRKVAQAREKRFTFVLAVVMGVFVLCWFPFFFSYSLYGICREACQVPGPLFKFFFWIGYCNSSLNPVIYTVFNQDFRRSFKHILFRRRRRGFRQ
# assay info: modulators of alpha2C/GIRK thallium flux, primary screen, cell-based, HEK293 alpha2C/GIRK1/2 (AID 624);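 further: slope of fluorescence ratio to pre-addition baseline per second over 15 to 24 s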
# condition label: thallium flux BTC fluorescence, at 10 µM, actives lie on both sides
Field: label. Allowed values: class 1 (slope < 0.006) or class 0 (slope >= 0.006).

| molecule | answer label |
| --- | --- |
| CCOCCn1c(CN2CCN(CC)CC2)nc2c1c(=O)n(C)c(=O)n2C | class 0 |
| O=C(CSc1ncnc2c1cnn2Cc1ccccc1)Nc1ccc2c(c1)OCCO2 | class 0 |
| COc1ccc(C(C)=O)c(OC(=O)c2ccc(OC)c(OC)c2)c1 | class 0 |
| O=C(c1ccc(S(=O)(=O)N2CCOCC2)cc1)N(c1ccc(F)cc1)C1C=CS(=O)(=O)C1 (stereo unspecified) | class 1 |

Now take the following molecule into account.
[Q] Quick check: does O=S1(=O)CC(N2CCOCC2)c2ccccc21 (stereo unspecified) have slope under 0.006?
[A] class 1

* * *

Recorded inhibition for the following compounds
# assay info: inhibitors of Chlamydomonas gravitaxis, primary screen, whole organism, Chlamydomonas reinhardtii, WT vs cilia-less mutant, absorbance, 96-well (AID 463189);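 further: 0% = wild type cc124 cells in DMSO and 100% = ciliumless bld1 mutant cells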
# condition label: OD600 absorbance, 2 days, at 10 µM, stronger effect = higher value
Report only the number, with the unit % understood.

Consider the reported inhibition for these compounds:
| compound | inhibition [%] |
| --- | --- |
| CCOC(=O)c1[nH]c2ccc(F)cc2c1NC(=O)CCN1CCSCC1 | -7.59 |
| Cc1cc(N2C(=O)C(=O)/C(=C(/O)c3ccc(F)cc3)C2c2cccc(Br)c2)no1 (configuration not stated) | 15.6 |
| COc1cccc(Cn2c(NCc3ccco3)nc3c2c(=O)n(C)c(=O)n3C)c1 | 0.377 |
| CC(C)CSc1nc(N2CCOCC2)c2c(c1C#N)CC(C)(C)SC2 | 25.7 |
| COc1cc(C2C(C(C)=O)=C(O)C(=O)N2c2ccc(Br)cn2)ccc1O (configuration not stated) | 23.7 |
| CC1(C)Cc2c(C#N)c(N3CCN(C(=O)c4ccco4)CC3)nc(-c3ccco3)c2CS1 | 3.99 |
| CCn1c(SCC(=O)NCc2ccco2)nnc1-c1ccc(N)cc1 | 6.36 |
| CCOC(=O)C1CCCN(c2nc3ccccc3nc2C(C#N)C(=O)OC(C)COC)C1 (configuration not stated) | 23.6 |

// inhibition value for "CCN(CC)c1nc(-c2cccc(OC)c2O)nc2ccccc12" : 15.7

# compound COc1ccc(C(=O)OC(C)CN2CCN(C)CC2)cc1OC (configuration not stated) ; its inhibition = 21.4

inhibition reported for this compound CC1(C)CC(=O)C2=C(C1)OC(N)=C(C#N)C21C(=O)N(CN2CCOCC2)c2ccccc21 (configuration not stated) : 36.4

# inhibition (compound: "CC(C)NCc1c(O)c(Br)cc2oc3c(c12)CCCC3" ) is 53.2

Value of measured inhibition for the entry "Cc1ccc(NC(=O)Cn2nc(C)c3ccccc3c2=O)cc1" : -6.33

Query "CCCc1nc(N2CCCC2)c(C#N)c2c1CCCC2" yields inhibition of 4.3

The compound listed as "O=C(NCc1cccnc1)NC(C(F)(F)F)C(F)(F)F" has a reported inhibition of -3.5

Summary for this compound, "CCCCCSc1nc(N2CCOCC2)c2c(c1C#N)CC(C)(C)OC2" : inhibition is 16.6

Given item "CC(NC(=O)Nc1ncccn1)(C(F)(F)F)C(F)(F)F" , the value recorded as its inhibition is -10.4

The compound listed as "COCCNc1nc2c(c(=O)n(C)c(=O)n2C)n1Cc1cccc(C(F)(F)F)c1" has a reported inhibition of 36.2

Memo: "N#Cc1c(N2CCCCC2)nc(N2CCCCC2)c2c1CCN(Cc1ccccc1)C2" , reported inhibition: 4.47

Data point: COc1ccc(/C(O)=C2/C(=O)C(=O)N(CCN3CCOCC3)C2c2cccnc2)cc1OC (configuration not stated) ; inhibition = -1.91

So, "CCc1[nH]c(=O)c(C#N)c2c1CSC(C)(C)C2" ? Its inhibition was 11.4

// sample "Cc1cc(C(=O)O)c(CSc2ncn[nH]2)o1" , its inhibition was -11
